Test name: Ex vivo biodistribution in mice with RPMI tumor xenografts
Test conditions: both sexes, NSG, mouse, spleen, 50 µCi, 60 min p.i.; RPMI xenograft mice; read-out: uptake in spleen
Procedure: […] Mice with 100–200 mm^3 tumor volume were used for ex vivo biodistribution studies. For radiotracer pharmacokinetics studies, mice with MOLP8 tumor xenografts received ≈80 µCi (2.96 MBq) [^68Ga]Ga‐AJ206 and were sacrificed at pre‐determined time points (5, 30, 60 and 120 min). Similarly, for dosimetry study, mice with MM1S tumor xenografts received ≈80 µCi (2.96 MBq) of [^68Ga]Ga‐AJ206 and were sacrificed at pre‐determined time points (5, 30, 60, 90 and 120 min). […]
Observation type: tissue uptake at 1 h (%ID/g)

Molecule	Observation type	Unit spec	Experimental value
CC[C@H](C)[C@@H]1NC(=O)[C@@H]2CCCN2C(=O)[C@H](Cc2ccccc2)NC(=O)[C@H](CC(=O)O)NC(=O)[C@H](C)NC(=O)[C@@H]2CSCc3cc(cc(c3)CSC[C@H](NC(=O)[C@H](C)NC(=O)CCOCCOCCOCCNC(=O)CN3CCN(CC(=O)O)CCN(CC(=O)O)CC3)C(=O)N[C@@H](C(C)C)C(=O)N3CCC[C@H]3C(=O)N2)CSC[C@@H](C(N)=O)NC(=O)[C@H](Cc2ccc(O)cc2)NC(=O)[C@H](Cc2c[nH]c3ccccc23)NC1=O [[^68Ga]Ga‐AJ206, metal not drawn]	tissue uptake at 1 h	%ID/g	1.09

----------
Test name: Ex vivo biodistribution in mice with MM1S tumor xenografts
Test conditions: both sexes, NSG, mouse, pancreas, 80 µCi, total radioactivity, 120 min p.i.; MM1S xenograft mice; read-out: uptake in pancreas

Compound	tissue uptake at 2 h [%ID/g]
CC[C@H](C)[C@@H]1NC(=O)[C@@H]2CCCN2C(=O)[C@H](Cc2ccccc2)NC(=O)[C@H](CC(=O)O)NC(=O)[C@H](C)NC(=O)[C@@H]2CSCc3cc(cc(c3)CSC[C@H](NC(=O)[C@H](C)NC(=O)CCOCCOCCOCCNC(=O)CN3CCN(CC(=O)O)CCN(CC(=O)O)CC3)C(=O)N[C@@H](C(C)C)C(=O)N3CCC[C@H]3C(=O)N2)CSC[C@@H](C(N)=O)NC(=O)[C@H](Cc2ccc(O)cc2)NC(=O)[C@H](Cc2c[nH]c3ccccc23)NC1=O [[^68Ga]Ga‐AJ206, metal not drawn]	0.17

----------
Test name: Ex vivo biodistribution in mice with RPMI tumor xenografts
Test conditions: both sexes, NSG, mouse, heart, 50 µCi, 60 min p.i.; RPMI xenograft mice; read-out: uptake in heart

Compound	tissue uptake at 1 h / %ID/g
CC[C@H](C)[C@@H]1NC(=O)[C@@H]2CCCN2C(=O)[C@H](Cc2ccccc2)NC(=O)[C@H](CC(=O)O)NC(=O)[C@H](C)NC(=O)[C@@H]2CSCc3cc(cc(c3)CSC[C@H](NC(=O)[C@H](C)NC(=O)CCOCCOCCOCCNC(=O)CN3CCN(CC(=O)O)CCN(CC(=O)O)CC3)C(=O)N[C@@H](C(C)C)C(=O)N3CCC[C@H]3C(=O)N2)CSC[C@@H](C(N)=O)NC(=O)[C@H](Cc2ccc(O)cc2)NC(=O)[C@H](Cc2c[nH]c3ccccc23)NC1=O [[^68Ga]Ga‐AJ206, metal not drawn]	0.63

----------
Test name: Ex vivo biodistribution in mice with MM1S tumor xenografts
Test conditions: both sexes, NSG, mouse, spleen, 80 µCi, total radioactivity, 5 min p.i.; MM1S xenograft mice; read-out: uptake in spleen
Observation type: tissue uptake at 5 min (%ID/g)

Compound	Observation type	Experimental value
CC[C@H](C)[C@@H]1NC(=O)[C@@H]2CCCN2C(=O)[C@H](Cc2ccccc2)NC(=O)[C@H](CC(=O)O)NC(=O)[C@H](C)NC(=O)[C@@H]2CSCc3cc(cc(c3)CSC[C@H](NC(=O)[C@H](C)NC(=O)CCOCCOCCOCCNC(=O)CN3CCN(CC(=O)O)CCN(CC(=O)O)CC3)C(=O)N[C@@H](C(C)C)C(=O)N3CCC[C@H]3C(=O)N2)CSC[C@@H](C(N)=O)NC(=O)[C@H](Cc2ccc(O)cc2)NC(=O)[C@H](Cc2c[nH]c3ccccc23)NC1=O [[^68Ga]Ga‐AJ206, metal not drawn]	tissue uptake at 5 min	6.41
